Exercise: state measured log10 IC50 for each of the compounds provided.
# ASSAY_NAME: Inhibition of Influenza A virus A/duck/china/1206/2012(H5N1) Neuraminidase
# log10 transformed; quantity=IC50; unit=nM

Bench note: what log10 IC50 did `CCC(CC)O[C@@H]1C=C(C(=O)O)C[C@H](NCc2ccc(-c3ccccc3)cc2)[C@H]1NC(C)=O` show?
0.58

Proceed to `CCCCCN(C(=N)N)[C@H]1CC(C(=O)O)=C[C@@H](OC(CC)CC)[C@@H]1NC(C)=O`
3.56

Continue with `CCC(CC)O[C@@H]1C=C(C(=O)O)C[C@H](NCc2ccc(-c3cccs3)cc2)[C@H]1NC(C)=O`
0.63

Now give it for `CCC(CC)O[C@@H]1C=C(C(=O)O)C[C@H](N(Cc2ccc(-c3ccccc3)cc2)C(=N)N)[C@H]1NC(C)=O` too.
2.43

Check `CCCN(C(=N)N)[C@H]1CC(C(=O)O)=C[C@@H](OC(CC)CC)[C@@H]1NC(C)=O` too.
3.06

Likewise for `CCC(CC)O[C@@H]1C=C(C(=O)O)C[C@H](NCCCc2ccccc2)[C@H]1NC(C)=O` ?
1.91

Then `CCCCN[C@H]1CC(C(=O)O)=C[C@@H](OC(CC)CC)[C@@H]1NC(C)=O` ?
1.75

Continue with `CCC(CC)O[C@@H]1C=C(C(=O)O)C[C@H](NCC(C)C)[C@H]1NC(C)=O`
1.92

What do you have for `CCC(CC)O[C@@H]1C=C(C(=O)O)C[C@H](NCc2ccccc2)[C@H]1NC(C)=O` ?
1.28

Try the compound `CCC(CC)CN[C@H]1CC(C(=O)O)=C[C@@H](OC(CC)CC)[C@@H]1NC(C)=O`
1.63

And the next one, `CCC(CC)O[C@@H]1C=C(C(=O)O)C[C@H](NCc2ccc(-c3ccccc3)cc2-c2ccccc2)[C@H]1NC(C)=O` ?
1.59

What about this compound? `CCC(CC)O[C@@H]1C=C(C(=O)O)C[C@H](NC/C=C/c2ccccc2)[C@H]1NC(C)=O`
1.68

Subsequent entry: `CCC(CC)O[C@@H]1C=C(C(=O)O)C[C@H](NCc2ccccc2Cl)[C@H]1NC(C)=O`
1.15

* * *

# ASSAY_NAME: Inhibition of Influenza A virus A/chicken/shandong/S2/02(H9N2) Neuraminidase
MEASURED_PROPERTY: pIC50
Conceptually, pIC50 converts a concentration in mol/L into minus its log10.

# query: pIC50 of entry `CCC(CC)O[C@@H]1C=C(C(=O)O)C[C@H](NCc2ccc(-c3ccccc3)cc2-c2ccccc2)[C@H]1NC(C)=O`
7.42

// next record `CCC(CC)O[C@@H]1C=C(C(=O)O)C[C@H](N(Cc2cccs2)C(=N)N)[C@H]1NC(C)=O`
6.46

Note, next up: `CCC(CC)O[C@@H]1C=C(C(=O)O)C[C@H](N(CCC(C)C)C(=N)N)[C@H]1NC(C)=O`
5.31

Would you kindly repeat that for `CCC(CC)O[C@@H]1C=C(C(=O)O)C[C@H](NCc2ccccc2O)[C@H]1NC(C)=O` ?
5.30

* * *

# ASSAY_NAME: Inhibition of Influenza A virus A/duck/china/1206/2012(H5N1) Neuraminidase
Task for the reader: assign each of the following compounds its reported IC50.

Quick check: IC50 of `CCC(CC)O[C@@H]1C=C(C(=O)O)C[C@H](NCc2cccs2)[C@H]1NC(C)=O` ?
53 nM

Try this compound too: CCC(CC)O[C@@H]1C=C(C(=O)O)C[C@H](NC(=N)N)[C@H]1NC(C)=O [Guanidino-Oseltamivir Carboxylicacid]
2.3 nM

Another compound to check: `CCC(CC)O[C@@H]1C=C(C(=O)O)C[C@H](NCc2ccccc2OCc2ccco2)[C@H]1NC(C)=O`
> 200 nM

Note, next up: `CCC(CC)O[C@@H]1C=C(C(=O)O)C[C@H](N(Cc2cccs2)C(=N)N)[C@H]1NC(C)=O`
88 nM

Would you kindly repeat that for `CCC(CC)O[C@@H]1C=C(C(=O)O)C[C@H](N(CCCc2ccccc2)C(=N)N)[C@H]1NC(C)=O` ?
1780 nM

Same question, `CCC(CC)O[C@@H]1C=C(C(=O)O)C[C@H](N(CCC(C)C)C(=N)N)[C@H]1NC(C)=O` this time
2540 nM

`CCC(CC)O[C@@H]1C=C(C(=O)NO)C[C@H](NC(=N)N)[C@H]1NC(C)=O` , same question.
> 200 nM

What do we get for `CCC(CC)O[C@@H]1C=C(C(=O)O)C[C@H](N(CC(C)C)C(=N)N)[C@H]1NC(C)=O` ?
390 nM

Try this compound too: `CCC(CC)O[C@@H]1C=C(C(=O)O)C[C@H](NCc2ccccc2F)[C@H]1NC(C)=O`
90 nM

# repeat for `CCC(CC)O[C@@H]1C=C(C(=O)O)C[C@H](NCc2ccccc2OC)[C@H]1NC(C)=O`
117 nM

Same read-out for `CCC(CC)O[C@@H]1C=C(C(=O)O)C[C@H](NCc2ccc(-c3ccccc3)cc2Cl)[C@H]1NC(C)=O` ?
27 nM

// query: `CCC(CC)O[C@@H]1C=C(C(=O)O)C[C@H](N(Cc2ccccc2)C(=N)N)[C@H]1NC(C)=O`
3020 nM

Similarly, `CCC(CC)O[C@@H]1C=C(C(=O)O)C[C@H](N(Cc2ccccc2OC)C(=N)N)[C@H]1NC(C)=O` ?
250 nM

Ok, now `CCC(CC)O[C@@H]1C=C(C(=O)O)C[C@H](NCc2ccccc2O)[C@H]1NC(C)=O`
63 nM

Item: `CCC(CC)O[C@@H]1C=C(C(=O)O)C[C@H](N(Cc2ccc(C(C)C)cc2)C(=N)N)[C@H]1NC(C)=O`
1560 nM

Same question for `CCC(CC)O[C@@H]1C=C(C(=O)O)C[C@H](NCc2ccccc2Br)[C@H]1NC(C)=O` please.
38 nM
